Recorded CMC for the following compounds
# ASSAY_REMARKS: Critical micelle concentration by fluorescence staining using diphenylhexatriene (DPH)
# Assay type: physicochemical
# RUN_PARAMETERS: aqueous solution

Example results:
[[record]]
compound = "CCCCCCCCCCCC(COC1OC(CO)C(O)C(O)C1O)C(OC1OC(CO)C(O)C(O)C1O)C(CCCCCCCCCCC)COC1OC(CO)C(O)C(O)C1O (mixture of isomers) [ACA-SC11]"
measured_quantity = "CMC"
value = "~0.010 mM"

[[record]]
compound = "CCCCCCCCCCCCC(COC1OC(CO)C(O)C(O)C1O)C(OC1OC(CO)C(O)C(O)C1O)C(CCCCCCCCCCCC)COC1OC(CO)C(O)C(O)C1O (mixture of isomers) [ACA-SC12]"
measured_quantity = "CMC"
value = "~0.007 mM"

[[record]]
compound = "CCCCCCCCCCCCO[C@@H]1O[C@H](CO)[C@@H](O[C@H]2O[C@H](CO)[C@@H](O)[C@H](O)[C@H]2O)[C@H](O)[C@H]1O [DDM, n-dodecyl-β-D-maltopyranoside, reference compound]"
measured_quantity = "CMC"
value = "0.17 mM"


Field CMC (entry CCCCCCCCCCC(CCCCCCCCCC)(COC1OC(CO)C(O)C(O)C1O)C(CCOC1OC(CO)C(O)C(O)C1O)OC1OC(CO)C(O)C(O)C1O (mixture of isomers) [ACA-AC10] ) reads ~0.019 mM

Just so you know, measured CMC for CCCCCCCCCCCC(CCCCCCCCCCC)(COC1OC(CO)C(O)C(O)C1O)C(CCOC1OC(CO)C(O)C(O)C1O)OC1OC(CO)C(O)C(O)C1O (mixture of isomers) [ACA-AC11] came out at ~0.014 mM

CMC reading for CCCCCCCCCCCCC(CCCCCCCCCCCC)(COC1OC(CO)C(O)C(O)C1O)C(CCOC1OC(CO)C(O)C(O)C1O)OC1OC(CO)C(O)C(O)C1O (mixture of isomers) [ACA-AC12] : ~0.012 mM

Item: CCCCCCC(CCCCCC)(CO[C@@H]1O[C@H](CO)[C@@H](O)[C@H](O)[C@H]1O)CO[C@@H]1O[C@H](CO)[C@@H](O)[C@H](O)[C@H]1O [OGNG, octyl glucoside neopentyl glycol, reference compound] | CMC: ~1.0 mM

Entry CCCCCCCCCCCCCC(COC1OC(CO)C(O)C(O)C1O)C(OC1OC(CO)C(O)C(O)C1O)C(CCCCCCCCCCCCC)COC1OC(CO)C(O)C(O)C1O (mixture of isomers) [ACA-SC13] ; CMC = ~0.005 mM

* * *

# ASSAY_REMARKS: Water solubility of the detergents
# Format: physicochemical
MEASURED_QUANTITY: Solubility (% by weight)

[[record]]
molecule = "CCCCCCCCCCCCO[C@@H]1O[C@H](CO)[C@@H](O[C@H]2O[C@H](CO)[C@@H](O)[C@H](O)[C@H]2O)[C@H](O)[C@H]1O [DDM, n-dodecyl-β-D-maltopyranoside, reference compound]"
measured_quantity = "Solubility (% by weight)"
value = ">10 % by weight"

[[record]]
molecule = "CCCCCCCCCCCCC(COC1OC(CO)C(O)C(O)C1O)C(OC1OC(CO)C(O)C(O)C1O)C(CCCCCCCCCCCC)COC1OC(CO)C(O)C(O)C1O (mixture of isomers)"
measured_quantity = "Solubility (% by weight)"
value = "~10 % by weight"

[[record]]
molecule = "CCCCCCCCCCCC(COC1OC(CO)C(O)C(O)C1O)C(OC1OC(CO)C(O)C(O)C1O)C(CCCCCCCCCCC)COC1OC(CO)C(O)C(O)C1O (mixture of isomers)"
measured_quantity = "Solubility (% by weight)"
value = "~10 % by weight"

[[record]]
molecule = "CCCCCCC(CCCCCC)(CO[C@@H]1O[C@H](CO)[C@@H](O)[C@H](O)[C@H]1O)CO[C@@H]1O[C@H](CO)[C@@H](O)[C@H](O)[C@H]1O [OGNG, octyl glucoside neopentyl glycol, reference compound]"
measured_quantity = "Solubility (% by weight)"
value = ">10 % by weight"


# Solubility (% by weight) of CCCCCCCCCCCCCC(COC1OC(CO)C(O)C(O)C1O)C(OC1OC(CO)C(O)C(O)C1O)C(CCCCCCCCCCCCC)COC1OC(CO)C(O)C(O)C1O (mixture of isomers) = ~5 % by weight

# Solubility (% by weight) (molecule: CCCCCCCCCCCC(CCCCCCCCCCC)(COC1OC(CO)C(O)C(O)C1O)C(CCOC1OC(CO)C(O)C(O)C1O)OC1OC(CO)C(O)C(O)C1O (mixture of isomers) ) is ~10 % by weight

For CCCCCCCCCCC(CCCCCCCCCC)(COC1OC(CO)C(O)C(O)C1O)C(CCOC1OC(CO)C(O)C(O)C1O)OC1OC(CO)C(O)C(O)C1O (mixture of isomers) the molecule record lists Solubility (% by weight) as >10 % by weight

Entry under test: CCCCCCCCCCCCC(CCCCCCCCCCCC)(COC1OC(CO)C(O)C(O)C1O)C(CCOC1OC(CO)C(O)C(O)C1O)OC1OC(CO)C(O)C(O)C1O (mixture of isomers) . Its Solubility (% by weight) was ~9 % by weight
